assay explanation: Cell Viability - LYMP2-021 (AID 974);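 note: compound exposure lasts 24 hours at 37 °C; nearly all actives have a fitted effect of over 55% in size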; note: potency is the fitted concentration of half-maximal effect
cond: LYMP2-021 lymphoblastoid cells viability; series mostly up to 92.2 µM
Inconclusive results are not listed. Calls of active or inactive are those of the source. Calls come from the whole dose curve; as a rule, active = well fitted cell-killing curve with a large enough effect; inconclusive = small, poorly fitted or top-dose-only effect; inactive = flat fitted curve, though single readings scatter. Numbered stars: 1 amine (or outer) side, 2 acyl side, 3 side chain; on linkers, the order of the positions; unused ones are H or OH. Bridge positions count the residues as written; N and C are the ends. Square brackets hold non-standard residues; d marks the D form. Peptide text beside a SMILES is read from it. I, II: the chains in the order shown. Actinocin(9to1) = Cc1c2oc3c(C)ccc(C(=O)[*:1])c3nc-2c(C(=O)[*:2])c(N)c1=O; NMeV = CN[C@H](C(=O)O)C(C)C; Sar = CNCC(=O)O
measurement type: Potency

molecule: CC(=O)Oc1ccc(C(c2ccc(OC(C)=O)cc2)c2ccccn2)cc1
measurement type: Potency
result: inactive
//
molecule: Cc1c2oc3c(C)ccc(C(=O)N[C@@H]4C(=O)N[C@H](C(C)C)C(=O)N5CCC[C@H]5C(=O)N(C)CC(=O)N(C)[C@@H](C(C)C)C(=O)O[C@@H]4C)c3nc-2c(C(=O)N[C@@H]2C(=O)N[C@H](C(C)C)C(=O)N3CCC[C@H]3C(=O)N(C)CC(=O)N(C)[C@@H](C(C)C)C(=O)O[C@@H]2C)c(N)c1=O (I: T[dV]P[Sar][NMeV] / II: T[dV]P[Sar][NMeV]; ester I:1-I:C, II:1-II:C; linker I:N-II:N via Actinocin(9to1))
measurement type: Potency
result: 2.5 nM (active)
//
molecule: Nc1ccc(C(=O)O)cc1
measurement type: Potency
result: inactive
//
molecule: CC/C(=C(/CC)c1ccc(O)cc1)c1ccc(O)cc1
measurement type: Potency
result: inactive
//
molecule: O=c1ccc2ccccc2o1
measurement type: Potency
result: inactive
//
molecule: O=C(O)CCCCC(=O)O
measurement type: Potency
result: inactive
